These data points were gathered from patent US20250051391A1.

System: HEK293 cells overexpressing A53T a-syn
Method Summary: Cytotoxicity screen of lentiviral 7-mer peptide library, Alpha syn A53T cells under MG132
Assay type: cell-based, human
Condition Summary: normalized Illumina peptide counts, 10 µM MG132
Parameter threshold = 10. Response is Condition met when Reads 10 UM MG132 meets or exceeds it, else Condition not met.

IN: Determine whether measured Reads 10 UM MG132 meets or exceeds 10 for GWTTVRR [7-mer library hit, A53T screen]
OUT: Condition not met
